Catalogue of pIC50 values
Tgt: C-Raf kinase (SEQ ID NO: 2) (Homo sapiens, UniProt P04049, Y340D/Y341D)
Construct: C-Raf residues 306-end; Y340D, Y341D with N-; GST (N); purchased Sigma
Sequence (P04049 307-648 Y340D/Y341D): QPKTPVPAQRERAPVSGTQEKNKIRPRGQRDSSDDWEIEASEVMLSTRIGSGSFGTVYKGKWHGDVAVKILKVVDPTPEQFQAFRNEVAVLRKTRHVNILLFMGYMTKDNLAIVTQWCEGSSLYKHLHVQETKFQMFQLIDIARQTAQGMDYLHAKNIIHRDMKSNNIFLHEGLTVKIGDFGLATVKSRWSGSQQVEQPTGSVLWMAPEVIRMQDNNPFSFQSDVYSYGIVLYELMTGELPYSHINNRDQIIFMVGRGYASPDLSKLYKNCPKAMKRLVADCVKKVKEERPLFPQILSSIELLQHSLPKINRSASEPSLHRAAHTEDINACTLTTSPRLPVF
Assay name: Biochemical assay for C-Raf (coupled pyruvate kinase/lactate dehydrogenase)
Experimental setup: 1 mM ATP; read-out: CRAF (inhibition of biochemical activity, IC50)
pIC50: −log10 of the molar value.

Structure smiles string | pIC50
CNc1cc(N2C[C@H]3C[C@@H]2CO3)nc(-c2cc(NC(=O)c3cc(C(F)(F)F)cnn3)ccc2C)n1 | 5.00 to 6.00
Cc1ccc(NC(=O)c2cc(C(C)(F)F)cnn2)cc1-c1cc(N[C@H](C)CO)nc(N2CCOCC2)c1 | > 7.00
Cc1ccc(NC(=O)c2cc(C(F)(F)F)cnn2)cc1-c1ccnc(N2CCOCC2)n1 | 5.00 to 6.00
Cc1ccc(NC(=O)c2cc(C3CC3)cnn2)cc1-c1cc(N[C@H](C)CO)nc(N2CCOCC2)c1 | > 7.00
Cc1ccc(NC(=O)c2cc(C(C)C)cnn2)cc1-c1cncc(N2CCOCC2)c1 | > 7.00
